Assay: yeast display, Sf9 membrane polyspecificity reagent, FACS + sequencing; frameworks hold sequencing errors
experimental_endpoint: polyreactivity (PSR sort gate)

sequence_input: QVQLVESCGGLVQAGGSLRLSCAASGFIFSQNAMGWYIQAPGKEREIVAVISARGGRTYYADSVKGRFTISRDNAKNTVYLQMNSLKPEDTAVYDCARRDFWWSRRIFGYWGQGTQVTVSS
polyreactivity (PSR sort gate): high polyreactivity

sequence_input: QVQLVESGGGLVQAGGSLRLSCAASGRTFYRNAMGWYRQATGKERELVAAISRGDSTYYADSVKGRFTISRDNAKKTVYLQMNSLKPEDTAVYYCAKRARRIGDVNMGSWGQGTQVTVSS
polyreactivity (PSR sort gate): low polyreactivity

sequence_input: QVQLVESGGGLVHEGGSLRLSFAASGPTFYRYTMGWYRQAPGKERELVATITGGGSTNYADSVKGRFTISRDNAKNTVYLQMNSLKPEDTAVYYCARAVVQSRGPPRYKTPYDYWGQGTQVTVSS
polyreactivity (PSR sort gate): low polyreactivity

sequence_input: QVQLVESGGGLVQAGGSLRLSCAASGSIFSINAMVSYRQAPGKERELVAAISASGGSTYYADSVKGRFTISRDFAKITVYLHMNSLKPEDTAVFYCAAEGSPTGYDYWGQGTQVTVSS
polyreactivity (PSR sort gate): low polyreactivity

sequence_input: QVQLVESGGGLVQAGGSLRLSCAASGSIFSRNAMGWYRQEPGKEREFVAAISYSSGSTYYADSVNGRFTISRDNAKNTVYLQMNSLKPEDTAVYYCAADTTKLQGVEGDYWGQGTQVTVSS
polyreactivity (PSR sort gate): low polyreactivity

sequence_input: QVQLVESGGGLVQAGGSLRLSCAASGRIFDYNGMGWYRQAPGKERELVAAIRLSDGSTYYADSVKGRFTISRDNAKNTVYLQMNSQKPEDTAVYYCADVGKNRSWYDYWGQGSQVTVSS
polyreactivity (PSR sort gate): high polyreactivity

sequence_input: QVQLVESGGGLVQAGGSLRLSCDASGSTFASYAMGWYRQAPGKERELVAAIRWSGGTTYYADSVKGRFTISRDNAKNTVYLLMNSLKTEDTAVYYCNADRYYLYYYWGQGTQVTVSS
polyreactivity (PSR sort gate): low polyreactivity

sequence_input: QVQLVESGGGLVQAGGSLRLSCAASGFTFDQYTMGWYRQAPGKERELVAAISSSGGSTYYADSVKGRFTISRDNAKNTVYLQMNSLKPEDTAVFYCAARFLLTQRFSHDYWGQGTQVTVSS
polyreactivity (PSR sort gate): low polyreactivity

sequence_input: QVQLVESGGGLVQAGGSLRLSCAASGRIFSVYTKGWYRQAPGKERELVATISSGGRTNYADSVKGRFTISRDNAKNTVYLQINSLKPEDSAVYYCAAVPYGFVGYDDYWGQGSQVTVSS
polyreactivity (PSR sort gate): low polyreactivity

sequence_input: QVQLVESGGGLVQAGGSLRLSCAASGSTFTGYAMGWYRPAPGKERELVAGITGSGGSTYYADSVKGRFTISRDNAKNTVYLQMNSLKPEDTAVYYCAAELYDYGDLYYSEYDYWGQGTQVTVSS
polyreactivity (PSR sort gate): low polyreactivity

Now consider the entry below.
-- ask Could you share which polyreactivity (PSR sort gate) value was measured for `QVQLVETGGGLVQAGGSLRLSCAASGRTLTCYAMGWYRQAPGKERELVAAISWSGGSTYYADSVKGRFTISRDNAKNTVYLQMYSLIPEDTAVYYCAADRVRSYFSRYYSTPLDYYWGQGTQVTVSS` ?
-- reply high polyreactivity

---

Assay: yeast display, Sf9 membrane polyspecificity reagent, FACS + sequencing; frameworks hold sequencing errors
experimental_endpoint: polyreactivity (PSR sort gate)

Answered cases to consult:
sequence_input: QVQLVESGGGLVQAGGSLRLSCAASGSTFAYYAMGWYRQAPGKERELVAAISWRGGSTYYADSVKGRFTISRDNAKNTVYLHMNSLKPEDTAVYYCATLSAWKASSYDYWGQGTQVTVSS
data_value: high polyreactivity

sequence_input: QVQLVESGGGLVQAGGSLRLSCAASGSTFRRNAMGWYRQAPGKEREFVAAISSRGGSTYYADSVKGRFTISRDNAKNTVYLQMNSLKPEDTAVYYCAADKASRHSNPFYYWGQGTQVTVSS
data_value: high polyreactivity

sequence_input: QVQLVESGGGLVQAGGSLRLSCAASGFIFGGYAMGWYRQAPGKEREFVAAIRQRGGSTYYADSVKGRFTISRDNAKNTVYLQMNSLKPEDTAVYYCAATVRAVQASVRYGYWGQGTQVTVSS
data_value: high polyreactivity

sequence_input: QEQLQESGGGLVQAGGSLRLSCAASGYISQSSVMGWYRQAPGKEREFVASISYGATTYYADSVKGRFTISRDNAKNTVYLQTNSRKPEDTAVYYCAVWVKRGFSHRYWGQGTQVTVSS
data_value: high polyreactivity

sequence_input: QVQLVESGGGLVQAGGSLRLSCAASGITFGIYAMGWDRQAPGKERELVAAISLSGGSTYYADSVKGRFTISRDNAKNTVYLQMNSVKPEDTAVYYCNARRNRYGEYYWGQGTQVTVSS
data_value: high polyreactivity

Would you mind giving polyreactivity (PSR sort gate) for every sequence in the list below?
1. QVQHVESVGGLVQAGGSLRLSCAASGYIFIRYPMGCYRQANGKERELDAAITWSDGTTYYADSVKGRFTISRDNAKNTVYLQMNSLKPEDTAVYYCAADRKVESVSRYDYWGQGTQVTVSS
2. QVQLVESGGGLVQAGGSLRLSCAASGSIFLVNAMGWYRQAPGERKELVAAISWSSGSTYYADSVKGRFTISRDNAKNTVYLQMNSLKPEDTAVYYCAKRSSITYRYDYWGQGTQVTVSS

-- reply
low polyreactivity
high polyreactivity

Field: polyreactivity (PSR sort gate). Fill in for each record below.
1. QVQLVESGGGLVQAGGSLRLSCAASGRIFYSYTMGWYRQAPGKEREMVAGINRSVGSTYYADSVKGRFTISRDNAKNTVYLQMNSLKPEDTAVYYCAAGSRRRSYYTFSSVHGHYYWGQGTQVTVSS
2. QVQLVESGGGLVQAGGSLRLSCAASGSTSHQYAMGSYRQAPGKERELVAAISSRAGSTYYADSVKGRFTISRDNAKNTVYLQMNSLKPEDTAVYYCAAEADSWKWGYDYWGQGTQVTVSS
3. QVQLVESGGGLVQAGGSLRLSCAASGFIFYSKAMGWYRQAPGKERELVAAISWGGGRTYYADSVKGRFTISRDNAKNTVYLQMNSLKPEDTAVYYCAAPWRRIGYSTRGYTLYDYWGQGTQVTVSS

-- reply
1: high polyreactivity; 2: low polyreactivity; 3: high polyreactivity

-- ask Which polyreactivity (PSR sort gate) is reported for this sequence? `QVQLVESGGGLVQAGGSLRLSCAASGRIFRYYAMGWYRQAPGKERELVAAITSSGSNTYYADSVKGRFTISRDNAKNTVYLQMNSLKPEDTAVYYCNARWRLVSSGFDGGYWGQGTQVTVSS`
-- reply high polyreactivity

---

Test: yeast display, Sf9 membrane polyspecificity reagent, FACS + sequencing; frameworks hold sequencing errors
experimental_endpoint: polyreactivity (PSR sort gate)

Sample records with polyreactivity (PSR sort gate):
sequence_input: QVQLVESGGGLVQAGGSLRLSCAASGIILHYYTMGWYRQAPGKERELVAAITFSGGGTYYADSVKGRFTISRDNAKNTVYLQMNSLKPEDTAVYYCAAPWRYYGHDYWGQGTQVTVSS
polyreactivity (PSR sort gate): low polyreactivity

sequence_input: QVQLVESGGGLVQAGGSLRLSCAASGFTFRNYAMGWYRQAPGKERELVAAISKRGGNTYYADSVKGRFTISRDNAKNTVYLQLYSLKREDTAVYYCAADYQFSQDVWHFGYWGLGTQVTVSS
polyreactivity (PSR sort gate): high polyreactivity

sequence_input: QVQLVESGGGLVQAGGSLRLSCAASGRTFQSNGMGWYRQAPGKERELVAAITWSSGTTYYADSVKGRFTISRDNAKNTVYLQMNSLKPEDTAVYYCAADWGHWNSLYYSGFGYWGQGTQVTVSS
polyreactivity (PSR sort gate): low polyreactivity

sequence_input: QVQLVESGGGLVQAGGSLRLSCAASGFTLARYAMGWYRQAPGKERELVAAITKRGGSTYYADSVKGRFTISRDNAKNTVYLQMNSLKPEDTAVYYCATYKRSSHYDYWGQGTQVTVSS
polyreactivity (PSR sort gate): high polyreactivity

-- ask For `QVQLVESGGGLVQAGGSLRLSCAASGLTFAQNAMGWYRQAPGKERELVAAITRSGGRTYYADSVKGRFTISRDNSKNTVYFQMNSLKPEDTAVYYCAARVLQYSGYYYWGQGTQVTVSS` , what is its reported polyreactivity (PSR sort gate)?
-- reply high polyreactivity

---

Assay: yeast display, Sf9 membrane polyspecificity reagent, FACS + sequencing; frameworks hold sequencing errors
experimental_endpoint: polyreactivity (PSR sort gate)

Observe how each entry below is paired with its result.
sequence_input: QVQLVESGGGLVQAGGSLRLSCAASGNIFSKYAMGWYRQAPGKERELVAAISRSGGRTYYADSVKGRFTISRDNAKNTVYLQMNSLNPEDTAFYYCNKAQRHYPYDYWGQGTQVTVSS
polyreactivity (PSR sort gate): high polyreactivity
//
sequence_input: QVQLVESGGGLVQAGGSLRLSCAAYGITFPVNAMGWYRQAPGKERELVAGIYFSGDSTYYADSVKGRFTISRDNAKNTVYLQMKSLKPEDTAVYYCAAEVWAFVYYFEYSTMYYWGHGTQVTVSS
polyreactivity (PSR sort gate): low polyreactivity
//
sequence_input: QVQLVESGGGLVQAGGSLRLSCAASGSIFTRYAMGWYRQEPGKERELVAAITTRGSSTYYADSVKGRFTISRDYAKNTVYLQMNSLKPEDTAVYYCATVVRLYRGRYRYDYWGQGTQVTVSS
polyreactivity (PSR sort gate): high polyreactivity
//
sequence_input: QVQLVESGGGLVQAGGSLRLSCAASGSIFRSYAMGWYRQAPGKERELVAAISRRGSSTYYADSVKGRFTISRDNAKNTVYLQMNSLKPEDTAVYYCNRVRYPRVDYWGQGTQVTVSS
polyreactivity (PSR sort gate): high polyreactivity

Field: polyreactivity (PSR sort gate). Fill in for each record below.
1. QVQLVESGGGLVQARVSLRLSCAASGITFRYYAMGWYRQAPGKERELVAAITRGGGSTYYADSVKGRFTISRDNAKNTVYLQMNSLKPEDTAVYYCAAAGSRYAWGYGYWGQGTQVTVSS
2. QVQLVESGGGLVQAGGSLRLSCAASGITLDNYVMGWYRQAPGKERELVAAISRTSGRTYYADSVKGRFTISRDNAKNTVYLQMNSLKPEDTAVYYCAAETGYTIRYDYWGQGTQVTVSS
3. QVQLVESGGRLVQAGRSLRLSCAASGRTFGRYAMGWYRQAPGKERELVAAITRGGGSTYYADSVKGRFTISRDNAKYTVSLQMNSLKPEDTAVYYCAARNFRSPYGYDYWGQGTQVTVSS

-- reply
["high polyreactivity", "high polyreactivity", "high polyreactivity"]

List polyreactivity (PSR sort gate) for every entry below, keeping the order given.
1. QVQLVESGGGLVQAGGSLRLSCAASGSTLGWYGMGWSRQAPGKERELVAAIDSGGNTYADSVKGRFTISRDNAKNTVYLQMNSLKPEDTAVYYCAVDGGEFSSYGYWGQGTQVTVSS
2. QVQLVETGGRKVQPGGSLRLSCAASRRTFDHNAMGWYRQAPGKERELVAAITWSGGITDYADSVKRPFTISRDNAKNTVYLEMFSLKPEDTAVWGQGTQVSVSS
3. QVQLVESGGGLVQAGGSLRLSCAASGRTVGVYAMGWYRQAPGKERELVATITSGASTNYADSVKARFTISRDNAKNTVYLQMTSLKPEDTAVYYCNARRVAYASYSHPRVLDDYWGQGTQVTVST

-- reply
1. low polyreactivity
2. low polyreactivity
3. low polyreactivity

Count: 8. Required value per item: polyreactivity (PSR sort gate).
1. QVQLVESGGGLVQAGGSLRLSCAASGIIFEYYAMGWYRQAPGKERELVAAISKRGGSTYYADSVKGRFTISRDNAKNTVYLQMNSLKPEDTAVYYCNARRWWVIRDYWGQGTQVTVSS
2. QVQLVESGGGLVQAGGSLRLSCAASGSIFVGNAMGWYRQAPGKERELFAAISSSGGSTYYADSVKGRFTISRDKAKNTFYLQMNILKPEDTAVYYCASDTYSTSGFYYWGQGTQVTVSS
3. QVQLVESGGGLVQAGGSLRLSCAASGSIFPDYAMGWYRQAPGKERELVAAITWRDDSTYFADSVKGRFTISRDNAKNTVYLQMNSLKPEDTAVYYCNASALDPLYAKDEYWGQGTQVTVSS
4. QVQLVESGGGLVHAGGSLRLSCAASGSISTRNAMGWYRQAPGKDRELVASITSGGSTYYADSVKGRFTISRDNAKNTVYLQMNSLKPEDTAVYYCAARRRRPWGYGYGYWGQGTQVTVSS
5. QVQLVESGGGLVQAGGSLRLSCAASGYTFWDYTMGWYRQAPGKEREFVAAINWSGGSTYYADSVKGRFTISRDNAKNTVYLQMNSLKPEDTAVYYCAARRGGRRGYDYWGQGTQVTVSS
6. QDQLVESGGCLVQAGGSLRLSCAASGSIFKTYAMGWYRQAPGKERELVAAISWRGGSTYYADSVKGRFTISRDNAKNTVYLQMISLKPEDTAVYYCAAGRKFGTRTLWYRYGYWGQGTQVTVSS
7. QVQLVESGGGLVQAGGSLRLSCAASGRTFYRYAMGWYRQAPGKERELVATINWTSGSTNYADSVKGRFTISRDNAKNTVYLQMNSLKPEDTAVYYCAARGPVGYGWRYRPWHDYWGQGTQVTVSS
8. QVQLVESGGGLVQAGGRLRLTCAASGFTFRYYAMGWYRQAPGKERELVATITRGGSTNYAESVKWRFTISRDNAKNTVYFQMNSLKPEDTAVYYCATGKIYWRGYEYWGQGTQVTVSS

-- reply
["high polyreactivity", "low polyreactivity", "low polyreactivity", "high polyreactivity", "high polyreactivity", "high polyreactivity", "high polyreactivity", "high polyreactivity"]

The measured values listed here are drawn from the nanobody polyreactivity screen of Harvey et al. (2022).
